# assay_summary: physchem
# run_parameters: 6 h, pH 7.4
Structures can show the parent of a compound that is named as a salt.
reported_property: Sol. pH7.4 (µM)

molecule: COc1cc2nc(N3CCN(C(=O)c4ccco4)CC3)nc(N)c2cc1OC [Prazosin (PZN), Prazosin HCl, reference compound]
reported: 1.42
--
molecule: Clc1cnc(Nc2ccccc2)nc1NCc1ccccc1
reported: 3.27
--
molecule: NS(=O)(=O)c1cccc(Nc2nc(NCc3ccccc3)c3ccccc3n2)c1
reported: 1.37

(P) c1ccc(CNc2nc(Nc3ccc(N4CCOCC4)cc3)nc3ccccc23)cc1
(Q) NS(=O)(=O)c1cccc(Nc2nc(NCc3ccco3)c3ccccc3n2)c1
Incoming: I would appreciate it if you could say which entry, P or Q , has the lower Sol. pH7.4 (µM) value. Indicate which entry you chose by stating its label.
Outgoing: Q

* * *

# assay_summary: physchem
# run_parameters: pH 7.4, aqueous buffer, thermodynamic from solid
reported_property: solubility thermodynamic at 6 h (µg/mL)

compound: NS(=O)(=O)c1ccc(Nc2nc(NCc3cccs3)c3ccccc3n2)cc1 [Compound 9]
unit_abbreviation: µg/mL
reported: 60

(1) NC(=O)c1ccc(Nc2nc(NCc3cccs3)c3ccccc3n2)cc1 [Compound 10]
(2) NS(=O)(=O)c1cccc(Nc2nc(NCc3ccco3)c3ccccc3n2)c1 [Compound 13]
Incoming: Between item 1 and item 2 , which reported solubility thermodynamic at 6 h is smaller? Choose, then provide that item's label.
Outgoing: 2

(P) NS(=O)(=O)c1cccc(Nc2nc(NCc3ccccc3)c3ccccc3n2)c1 [Compound 5]
(Q) CN(C)S(=O)(=O)c1ccc(Nc2nc(NCc3ccccc3)c3ccccc3n2)cc1 [Compound 3]
(R) NS(=O)(=O)c1cccc(Nc2nc(NCc3cccs3)c3ccccc3n2)c1 [Compound 11]
Incoming: Returns the items ordered by solubility thermodynamic at 6 h, from maximum to minimum. Dear reader, please state the labels in the requested order.
Outgoing: P, Q, R

* * *

# assay_summary: physchem
# run_parameters: pH 7.4, aqueous buffer, thermodynamic from solid
Structures can show the parent of a compound that is named as a salt.
reported_property: solubility thermodynamic at 6 h (µg/mL)

Use these answered entries as a reference point.
compound: NC(=O)c1cccc(Nc2nc(NCc3cccs3)c3ccccc3n2)c1 [Compound 12]
reported: 210
//
compound: c1ccc(Nc2nc(NCc3cccs3)c3ccccc3n2)cc1 [Compound 6]
reported: 130
//
compound: c1csc(CNc2nc(Nc3ccc(N4CCOCC4)cc3)nc3ccccc23)c1 [Compound 8]
reported: 200

(a) Clc1cnc(Nc2ccccc2)nc1NCc1ccccc1 [Compound 14]
(b) c1ccc(CNc2nc(Nc3ccccc3)nc3ccccc23)cc1 [Compound 1]
(c) c1ccc(CNc2nc(Nc3ccc(N4CCOCC4)cc3)nc3ccccc23)cc1 [Compound 2]
(d) NS(=O)(=O)c1ccc(Nc2nc(NCc3ccccc3)c3ccccc3n2)cc1 [Compound 4]
(e) COc1cc2nc(N3CCN(C(=O)c4ccco4)CC3)nc(N)c2cc1OC [Prazosin (PZN), Prazosin HCl, reference compound]
Incoming: Reorder the items by solubility thermodynamic at 6 h, least to greatest. Lab note: record answer as labels in requested order.
Outgoing: d, b, c, e, a
(d: 10 µg/mL, b: 130 µg/mL, c: 250 µg/mL, e: 550 µg/mL, a: 1020 µg/mL)

* * *

This listing pairs compounds with measured Emax.
# System: endothelium-intact rat pulmonary arterial rings
# assay_summary: Vasorelaxation of PE pre-contracted endothelium-intact (E+) pulmonary arterial rings, organ bath
# run_parameters: Rattus norvegicus, maximal relaxation, endothelium-intact rings, up to 30 µM; mean ± SEM
Entry rule: numbers only, all in %.

Example entries and their recorded answers appear below.
compound: CN(C)S(=O)(=O)c1ccc(Nc2nc(NCc3ccccc3)c3ccccc3n2)cc1 [Compound 3]
unit_abbreviation: %
Emax: 82.4

compound: NS(=O)(=O)c1cccc(Nc2nc(NCc3ccco3)c3ccccc3n2)c1 [Compound 13]
unit_abbreviation: %
Emax: 95.5

Incoming: # Emax lookup, item c1csc(CNc2nc(Nc3ccc(N4CCOCC4)cc3)nc3ccccc23)c1 [Compound 8]
Outgoing: 98.8

Incoming: Any idea what Emax was measured for NC(=O)c1cccc(Nc2nc(NCc3cccs3)c3ccccc3n2)c1 [Compound 12] ?
Outgoing: 98.7

Incoming: Please report the recorded Emax for NS(=O)(=O)c1ccc(Nc2nc(NCc3ccccc3)c3ccccc3n2)cc1 [Compound 4] .
Outgoing: 88.5

Incoming: For the compound shown here, NS(=O)(=O)c1cccc(Nc2nc(NCc3cccs3)c3ccccc3n2)c1 [Compound 11] , give the reported Emax.
Outgoing: 98.7

Incoming: Which measured Emax value corresponds to c1ccc(CNc2nc(Nc3ccc(N4CCOCC4)cc3)nc3ccccc23)cc1 [Compound 2] ?
Outgoing: 94.7

Incoming: Entry c1ccc(Nc2nc(NCc3cccs3)c3ccccc3n2)cc1 [Compound 6] has what Emax?
Outgoing: 88

Incoming: Any idea what Emax was measured for CCCc1nn(C)c2c(=O)[nH]c(-c3cc(S(=O)(=O)N4CCN(C)CC4)ccc3OCC)nc12 [Sildenafil (SIL), Sildenafil, reference compound] ?
Outgoing: 97.8

Incoming: Recorded Emax for NC(=O)c1ccc(Nc2nc(NCc3cccs3)c3ccccc3n2)cc1 [Compound 10] , please?
Outgoing: 90.2

Incoming: Which value of Emax has been reported for Clc1cnc(Nc2ccccc2)nc1NCc1ccccc1 [Compound 14] in the records?
Outgoing: 67.8

Incoming: Requested read-out: Emax. Entry: NS(=O)(=O)c1cccc(Nc2nc(NCc3ccccc3)c3ccccc3n2)c1 [Compound 5]
Outgoing: 91.7

Incoming: Emax for O=C(Nc1ccccc1)Nc1ccc(Nc2nc(NCc3cccs3)c3ccccc3n2)cc1 [Compound 7] ?
Outgoing: 76

Incoming: Bench note: what Emax did c1ccc(CNc2nc(Nc3ccccc3)nc3ccccc23)cc1 [Compound 1] show?
Outgoing: 90

Incoming: Fill in: Emax of NS(=O)(=O)c1ccc(Nc2nc(NCc3cccs3)c3ccccc3n2)cc1 [Compound 9] is ___
Outgoing: 98.4

* * *

# Test system: PE-induced contraction of endothelium-denuded pulmonary arterial rings
# assay_summary: Inhibition of phenylephrine (PE)-induced contraction in endothelium-denuded arterial rings
# Set-up: species or system rat
# run_parameters: Rattus norvegicus; 10 µM compound, 15 min pre-incubation, PE 0.0001–100 µM, E− rings; n = 3–5; read-out: % PE-Contraction Inhibition (SEM)
Structures can show the parent of a compound that is named as a salt.
The entries below come with measured inhibition at 10 µM values attached.
Answer in %, number only, no unit symbol.

// known answers, use as guide
molecule: NS(=O)(=O)c1cccc(Nc2nc(NCc3ccco3)c3ccccc3n2)c1 [Compound 13]
measured_on: PE-induced contraction of endothelium-denuded pulmonary arterial rings
inhibition at 10 µM (%): 45.9

molecule: c1ccc(CNc2nc(Nc3ccc(N4CCOCC4)cc3)nc3ccccc23)cc1 [Compound 2]
measured_on: PE-induced contraction of endothelium-denuded pulmonary arterial rings
inhibition at 10 µM (%): 56.6

molecule: O=C(Nc1ccccc1)Nc1ccc(Nc2nc(NCc3cccs3)c3ccccc3n2)cc1 [Compound 7]
measured_on: PE-induced contraction of endothelium-denuded pulmonary arterial rings
inhibition at 10 µM (%): 43.6

Incoming: Which inhibition at 10 µM is listed for c1csc(CNc2nc(Nc3ccc(N4CCOCC4)cc3)nc3ccccc23)c1 [Compound 8] ?
Outgoing: 42.4

Incoming: What does the data say about its inhibition at 10 µM? Entry: CCCc1nn(C)c2c(=O)[nH]c(-c3cc(S(=O)(=O)N4CCN(C)CC4)ccc3OCC)nc12 [Sildenafil (SIL), Sildenafil, reference compound]
Outgoing: 58.3

Incoming: Quick one: inhibition at 10 µM of COc1cc2nc(N3CCN(C(=O)c4ccco4)CC3)nc(N)c2cc1OC [Prazosin (PZN), Prazosin HCl, reference compound] ?
Outgoing: 98

* * *

# assay_summary: physchem
# run_parameters: 6 h, pH 7.4
reported_property: Log Sol

Some entries whose results are on file:
compound: O=C(Nc1ccccc1)Nc1ccc(Nc2nc(NCc3cccs3)c3ccccc3n2)cc1 [Compound 7]
reported: -0.66

compound: Clc1cnc(Nc2ccccc2)nc1NCc1ccccc1 [Compound 14]
reported: 0.51

compound: c1ccc(Nc2nc(NCc3cccs3)c3ccccc3n2)cc1 [Compound 6]
reported: -0.40

compound: c1csc(CNc2nc(Nc3ccc(N4CCOCC4)cc3)nc3ccccc23)c1 [Compound 8]
reported: -0.32

(I) NC(=O)c1cccc(Nc2nc(NCc3cccs3)c3ccccc3n2)c1 [Compound 12]
(II) CN(C)S(=O)(=O)c1ccc(Nc2nc(NCc3ccccc3)c3ccccc3n2)cc1 [Compound 3]
(III) NC(=O)c1ccc(Nc2nc(NCc3cccs3)c3ccccc3n2)cc1 [Compound 10]
(IV) NS(=O)(=O)c1ccc(Nc2nc(NCc3ccccc3)c3ccccc3n2)cc1 [Compound 4]
(V) NS(=O)(=O)c1cccc(Nc2nc(NCc3ccccc3)c3ccccc3n2)c1 [Compound 5]
Incoming: hey, can you rank those compounds up there by Log Sol? biggest number first please Present the labels in the sequence the task asks for.
Outgoing: V, III, II, I, IV
(V: 0.14, III: 0.08, II: -0.06, I: -0.25, IV: -1.52)
